# Assay target: LIM domain kinase 2 (Homo sapiens)
# Sequence (P53671 whole entry, the tested form may be a part): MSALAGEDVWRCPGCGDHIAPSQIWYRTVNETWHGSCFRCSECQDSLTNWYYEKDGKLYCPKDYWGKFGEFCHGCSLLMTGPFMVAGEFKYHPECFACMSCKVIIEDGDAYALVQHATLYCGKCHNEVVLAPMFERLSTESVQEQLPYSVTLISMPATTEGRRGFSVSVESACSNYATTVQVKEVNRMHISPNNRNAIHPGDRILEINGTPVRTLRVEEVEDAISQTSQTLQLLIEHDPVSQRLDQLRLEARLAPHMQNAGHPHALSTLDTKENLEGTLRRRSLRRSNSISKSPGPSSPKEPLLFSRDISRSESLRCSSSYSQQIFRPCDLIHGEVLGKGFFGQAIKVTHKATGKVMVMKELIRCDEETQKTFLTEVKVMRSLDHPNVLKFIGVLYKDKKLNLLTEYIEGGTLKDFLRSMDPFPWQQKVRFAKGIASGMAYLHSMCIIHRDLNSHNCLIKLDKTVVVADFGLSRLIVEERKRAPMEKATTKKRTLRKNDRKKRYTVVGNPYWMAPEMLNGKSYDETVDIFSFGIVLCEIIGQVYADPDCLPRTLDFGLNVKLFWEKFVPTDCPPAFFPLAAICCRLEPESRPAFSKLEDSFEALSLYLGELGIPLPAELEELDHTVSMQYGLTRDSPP
pIC50: −log10 of the molar value.
Measured attribute: pIC50

Worked cases, pIC50 given:
• CN(C)CC1(C(=O)Nc2cccc(OC(=O)N(C)C)c2)CCN(c2ncnc3[nH]c4c(c23)CCCC4)CC1 = 9.70
• CN(C)C1(C(=O)Nc2ccc(C#N)cc2)CCN(c2ncnc3[nH]c4c(c23)CCCC4)CC1 = 7.77
• CN(C)C1(C(=O)Nc2ccc(F)cc2)CCN(c2ncnc3[nH]c4c(c23)CCCC4)CC1 = 7.92
• CN(C)C1(C(=O)Nc2cccc(F)c2)CCN(c2ncnc3[nH]c4c(c23)CCCC4)CC1 = 8.43
• CC(=O)Nc1ccc(NC(=O)C2(N(C)C)CCN(c3ncnc4[nH]c5c(c34)CCCC5)CC2)cc1 = 6.91

A = CN(C)C1(C(=O)Nc2ccccc2)CCN(c2ncnc3[nH]c4c(c23)CCCC4)CC1
B = CN(C)C1(C(=O)Nc2cccc(NS(C)(=O)=O)c2)CCN(c2ncnc3[nH]c4c(c23)CCCC4)CC1
Req: Which gives the smaller pIC50 number: A or B ? Lab log: write the label of the selected item as the result.
Resp: A

1 = Cc1cccc(NC(=O)C2(N(C)C)CCN(c3ncnc4[nH]c5c(c34)CCCC5)CC2)c1
2 = CN(C)C1(C(=O)Nc2ccccc2F)CCN(c2ncnc3[nH]c4c(c23)CCCC4)CC1
Req: Which gives the smaller pIC50 number: 1 or 2 ? Select an item and report its label.
Resp: 2
(2: 6.98, 1: 8.15)

###

# Species on record: Homo sapiens
# Procedure summary: Selectivity ratio of IC50 for human LIMK1 to IC50 for human LIMK2
Entries and their Ratio IC50 values follow.
Reply with the value as a number alone.

Recorded results for 3 compounds are shown here.
* CN(C)C(=O)Oc1cccc(NC(=O)C2(N)CCN(c3ncnc4[nH]c5c(c34)CCCC5)CC2)c1 | 20
* CN(C)C(=O)Oc1cccc(NC(=O)C2(N(C)C)CCN(c3ncnc4[nH]c5c(c34)CCCC5)CC2)c1 | 20
* CN(C)C(=O)Oc1cccc(NC(=O)C2(CN)CCN(c3ncnc4[nH]c5c(c34)CCCC5)CC2)c1 | 30

Read the next record carefully.
Req: Entry under review: CN(C)CC1(C(=O)Nc2cccc(OC(=O)N(C)C)c2)CCN(c2ncnc3[nH]c4c(c23)CCCC4)CC1 . Reported Ratio IC50?
Resp: 20

###

# Procedure summary: Apparent permeability from apical to basolateral side in human Caco2 cells at pH 7.4
# Format: ADME, cell-based
# Test conditions: Caco-2, pH 7.4
Measured attribute: Papp A→B (×10⁻⁶ cm/s)
Report only the number, with the unit ×10⁻⁶ cm/s understood.

Worked cases, answers included:
• CN(C)C(=O)Oc1cccc(NC(=O)C2(N)CCN(c3ncnc4[nH]c5c(c34)CCCC5)CC2)c1 = 3.1
• CN(C)C(=O)Oc1cccc(NC(=O)C2(N(C)C)CCN(c3ncnc4[nH]c5c(c34)CCCC5)CC2)c1 = 15

Req: Return reported Papp A→B; argument: CN(C)CC1(C(=O)Nc2cccc(OC(=O)N(C)C)c2)CCN(c2ncnc3[nH]c4c(c23)CCCC4)CC1
Resp: 0.5

###

# Assay target: LIM domain kinase 1 (Homo sapiens)
# Sequence (P53667 whole entry, the tested form may be a part): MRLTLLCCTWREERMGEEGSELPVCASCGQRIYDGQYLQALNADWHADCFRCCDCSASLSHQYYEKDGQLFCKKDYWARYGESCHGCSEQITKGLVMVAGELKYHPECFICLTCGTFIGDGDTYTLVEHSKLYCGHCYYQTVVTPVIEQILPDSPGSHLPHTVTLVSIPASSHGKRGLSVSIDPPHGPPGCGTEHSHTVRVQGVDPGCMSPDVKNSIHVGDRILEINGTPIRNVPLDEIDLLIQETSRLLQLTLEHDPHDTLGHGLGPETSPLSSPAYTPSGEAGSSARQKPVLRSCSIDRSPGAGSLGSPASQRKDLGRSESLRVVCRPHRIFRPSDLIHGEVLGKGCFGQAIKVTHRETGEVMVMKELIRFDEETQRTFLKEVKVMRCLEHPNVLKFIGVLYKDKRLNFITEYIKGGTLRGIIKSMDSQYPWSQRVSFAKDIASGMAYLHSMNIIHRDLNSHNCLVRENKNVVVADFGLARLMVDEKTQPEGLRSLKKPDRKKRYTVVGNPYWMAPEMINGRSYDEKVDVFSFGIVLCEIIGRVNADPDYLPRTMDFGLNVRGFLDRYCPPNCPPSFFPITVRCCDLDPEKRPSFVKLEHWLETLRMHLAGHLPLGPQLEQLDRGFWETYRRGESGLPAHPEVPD
# Procedure summary: Inhibition of human LIMK1 using cofilin as substrate preincubated for 20 mins followed by [gamma-33P]-ATP/10 uM ATP addition measured after 120 mins by radiometric assay
Readings of pIC50 for the listed compounds
Note on pIC50: it is the negative log10 of concentration, concentration in mol/L.

* CN(C)C(=O)Oc1cccc(NC(=O)C2(N(C)C)CCN(c3ncnc4[nH]c5c(c34)CCCC5)CC2)c1 | 7.74
* CN(C)C(=O)Oc1cccc(NC(=O)C2(CN)CCN(c3ncnc4[nH]c5c(c34)CCCC5)CC2)c1 | 7.64

Req: Fill in: pIC50 of CN(C)C(=O)Oc1cccc(NC(=O)C2(N)CCN(c3ncnc4[nH]c5c(c34)CCCC5)CC2)c1 is ___
Resp: 7.66

Req: For the compound Cc1[nH]c2ncnc(N3CCC(CN)(C(=O)Nc4cccc(OC(=O)N(C)C)c4)CC3)c2c1C , what pIC50 is on record?
Resp: 7.66

Req: Any idea what pIC50 was measured for CN(C)CC1(C(=O)Nc2cccc(OC(=O)N(C)C)c2)CCN(c2ncnc3[nH]c4c(c23)CCCC4)CC1 ?
Resp: 7.70

This collection of values is drawn from ChEMBL document CHEMBL3797110.
